Assay: in vitro
Type: in vitro ADME
Settings: human, plasma, 37 °C, mean ± SD, read-out: Human Plasma Stability t½
parameter measured: half-life at 1 µmol/L (min)
Please respond with the number in min and leave the unit unwritten.

// half-life at 1 µmol/L lookup, key: `CO[C@H]1OC(=O)C=C2[C@@]13O[C@@H]3[C@H]1OC(=O)[C@@]3(C)CCC[C@@]2(C)[C@@H]13`
17.5

---

System: HCT-8 cells
Experiment: HCT-8 cytotoxicity assay
Format: cell-based
Settings: sub-confluent
I'd appreciate it if you could supply TC50 HCT-8 (sub-confluent) values for the items below.
Please respond with the number in µM and leave the unit unwritten.

// TC50 HCT-8 (sub-confluent) lookup, key: `CO[C@H]1OC(=O)C=C2C1=C[C@H]1OC(=O)[C@@]3(C)CCC[C@@]2(C)[C@@H]13`
2.1

Similarly, `C[C@@]12CCC[C@]3(C)C4=CC(=O)O[C@H](O)C4=C[C@@H](OC1=O)[C@@H]23` ?
2.5

Similarly, `C[C@@]12CCC[C@]3(C)C4=CC(=O)OC[C@]45O[C@@H]5[C@@H](OC1=O)[C@@H]23` ?
1.35

Similarly, `COC(=O)/C=C1/[C@]2(C=O)O[C@@H]2[C@H]2OC(=O)[C@@]3(C)CCC[C@@]1(C)[C@@H]23` ?
4.8

Similarly, `C[C@]1(C(=O)O)CCC[C@]2(C)C3=CC(=O)OCC3=CC[C@@H]12` ?
19.7

Similarly, `CO[C@H]1OC(=O)C=C2[C@@]13O[C@@H]3[C@H]1OC(=O)[C@@]3(C)CCC[C@@]2(C)[C@@H]13` ?
29.7

---

Assay: Microsomal stability assay, human
Details: microsomes, pH 7.4
parameter measured: half-life at 1 µmol/L (h)
Please respond with the number in h and leave the unit unwritten.

// half-life at 1 µmol/L lookup, key: `CO[C@H]1OC(=O)C=C2[C@@]13O[C@@H]3[C@H]1OC(=O)[C@@]3(C)CCC[C@@]2(C)[C@@H]13`
5.29

---

I'd appreciate it if you could supply pEC50 values for the items below.
Tested on: C. parvum
Assay: C. parvum growth inhibition assay (Cp-NLuc-infected HCT-8 cells)
Format: cell-based, Cryptosporidium parvum
Details: Cryptosporidium parvum; Cp-NLuc-infected HCT-8 cells, 7.5 µM to 117 nM, Figure 2E; read-out: C. parvum EC50
Convention used: pEC50 is expressed as -log10 of the molar concentration.

// pEC50 lookup, key: CO[C@H]1OC(=O)C=C2[C@@]13O[C@@H]3[C@H]1OC(=O)[C@@]3(C)CCC[C@@]2(C)[C@@H]13 [compound 1, oidiolactone A]
6.28

Similarly, CO[C@H]1OC(=O)C=C2C1=C[C@H]1OC(=O)[C@@]3(C)CCC[C@@]2(C)[C@@H]13 [compound 7, oidiolactone B] ?
6.62

---

System: HFF cells
Assay: HFF cytotoxicity assay
Format: cell-based
Settings: confluent
I'd appreciate it if you could supply TC50 HFF (confluent) values for the items below.

Query TC50 HFF (confluent) on HFF cells for `CO[C@H]1OC(=O)C=C2[C@@]13O[C@@H]3[C@H]1OC(=O)[C@@]3(C)CCC[C@@]2(C)[C@@H]13`
> 30 µM

Similarly, `C[C@]1(C(=O)O)CCC[C@]2(C)C3=CC(=O)OCC3=CC[C@@H]12` ?
> 30 µM

Similarly, `C[C@@]12CCC[C@]3(C)C4=CC(=O)OC[C@]45O[C@@H]5[C@@H](OC1=O)[C@@H]23` ?
> 30 µM

Similarly, `C[C@@]12CCC[C@]3(C)C4=CC(=O)O[C@H](O)C4=C[C@@H](OC1=O)[C@@H]23` ?
> 30 µM

Values were extracted from paper PMC12654037.
